target: RORγ (Homo sapiens, UniProt P51449); experiment: RORγ Gal4 Reporter Gene Assay; format: cell-based
Sequence (P51449 whole entry, looked up, the tested form may be a part): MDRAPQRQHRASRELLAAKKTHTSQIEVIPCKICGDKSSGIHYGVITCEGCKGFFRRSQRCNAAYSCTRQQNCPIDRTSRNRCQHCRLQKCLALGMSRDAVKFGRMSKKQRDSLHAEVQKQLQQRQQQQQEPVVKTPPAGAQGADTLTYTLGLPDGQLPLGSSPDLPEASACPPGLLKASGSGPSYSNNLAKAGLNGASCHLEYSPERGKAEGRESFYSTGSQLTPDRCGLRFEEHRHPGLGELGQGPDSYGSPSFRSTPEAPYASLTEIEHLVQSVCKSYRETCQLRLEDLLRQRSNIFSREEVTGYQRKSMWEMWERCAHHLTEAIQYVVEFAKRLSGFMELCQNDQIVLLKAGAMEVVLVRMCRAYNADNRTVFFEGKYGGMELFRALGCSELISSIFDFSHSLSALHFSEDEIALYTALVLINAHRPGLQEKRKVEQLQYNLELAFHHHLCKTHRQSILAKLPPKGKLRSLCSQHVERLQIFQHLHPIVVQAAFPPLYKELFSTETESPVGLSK
Answer each item with its documented pIC50 (FF).

Fill in: pIC50 (FF) of CC(C)(O)CNC(=O)c1nc(CC2CCC2)c(-c2ccc(S(=O)(=O)NC(C)(C)C)c(Cl)c2Cl)s1 [Example 21] is ___ 7.0/8.1/8.2

Consider the compound CC1CCCCN1C(=O)c1nc(C(=O)NCC(C)(C)O)sc1-c1ccc(S(=O)(=O)NC(C)(C)C)c2ccccc12 (stereo not shown) [304/7] and give its measured pIC50 (FF). 6.1/7.3/7.3

---

Consider the following compounds; for each one, report its pIC50 (FRET).
target: RORγ ligand binding domain (LBD) (Homo sapiens (Human)); test: TR-FRET Activity Assay (ligand sensing assay, LANCE); conditions: TR-FRET, interaction of RORγ-LBD with coactivator peptide
Sequence (P51449 269-508): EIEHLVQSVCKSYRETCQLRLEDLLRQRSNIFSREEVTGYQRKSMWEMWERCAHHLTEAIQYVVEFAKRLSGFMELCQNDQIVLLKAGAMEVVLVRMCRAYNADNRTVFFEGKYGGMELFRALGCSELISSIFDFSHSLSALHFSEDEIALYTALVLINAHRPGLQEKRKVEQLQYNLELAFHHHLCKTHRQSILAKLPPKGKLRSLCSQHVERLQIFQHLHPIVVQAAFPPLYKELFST

Look up pIC50 (FRET): NS(=O)(=O)c1c(Cl)cc(-c2sc(C(=O)NC3CCOCC3)nc2CC2CCCCC2)cc1C(F)(F)F [Example 17/1] 5.6/6.1/6.5

What does the data say about its pIC50 (FRET)? Entry: CC(C)(C)NS(=O)(=O)c1ccc(-c2sc(C(=O)NCCC(C)(C)C(=O)O)nc2CC2CCCCC2)c(Cl)c1Cl [6/39] 6.4/8.2/8.2

Query: pIC50 (FRET); subject: CC(C)(C)c1cc(-c2cc(C(N)=O)ccc2CC2CCCCC2)cc(C(C)(C)C)c1 [Example 208] 6.5/6.3/6.3

pIC50 (FRET) for CC(C)(C)NS(=O)(=O)c1ccc(-c2sc(C(=O)N[C@H]3C[C@H](S(C)(=O)=O)C3)nc2CC2CCCCC2)c(Cl)c1Cl [6/41] ? 7.3/8.0/8.2

Requested field: pIC50 (FRET). Item: CC(C)(C)NS(=O)(=O)c1ccc(-c2sc(C(=O)NC3CSC3)nc2CC2CCCCC2)c(Cl)c1Cl [6/30] 7.2/8.7/8.7

Can you share its pIC50 (FRET)? I mean this compound: CC(C)(C)NS(=O)(=O)c1ccc(-c2oc(C(=O)NC3CCS(=O)(=O)CC3)nc2CC2CCC2)c2ccccc12 [Example 104] 6.6/7.5/7.9

Param item = COC(c1nc(C(=O)NC2CCOCC2)sc1-c1ccc(S(=O)(=O)NC(C)(C)C)c(C(C)(C)C)c1)C1CCCCC1 (stereo not shown) [Example 19/1] ; retrieve measured pIC50 (FRET). 6.1/6.7/6.7
